B1: TPR t1 (parent)
chain: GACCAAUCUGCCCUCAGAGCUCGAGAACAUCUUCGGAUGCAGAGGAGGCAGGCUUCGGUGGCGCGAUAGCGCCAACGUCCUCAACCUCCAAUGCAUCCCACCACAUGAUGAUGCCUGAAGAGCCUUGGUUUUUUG

# Variants of: B1
# ASSAY_SUMMARY: polymerase ribozyme fitness, log enrichment relative to wild type (log ratio); higher = more active; in vitro selection for triplet polymerase activity
QUANTITY_KIND: polymerase ribozyme fitness (log ratio)

The following variants have reported results that may help.
>  <MUTATION_NOTATION>
C40A C79G G93C G110A U133A

>  <polymerase ribozyme fitness (log ratio)>
-5.44

$$$$
>  <MUTATION_NOTATION>
A18C C56G

>  <polymerase ribozyme fitness (log ratio)>
-2.15

$$$$
>  <MUTATION_NOTATION>
C72U C94A

>  <polymerase ribozyme fitness (log ratio)>
-1.26

$$$$
>  <MUTATION_NOTATION>
U7G G19A G44C C114G G120U

>  <polymerase ribozyme fitness (log ratio)>
-3.21

$$$$
>  <MUTATION_NOTATION>
C40A G61C A118U U130G

>  <polymerase ribozyme fitness (log ratio)>
-3.57

$$$$

C64U G117U yielded polymerase ribozyme fitness (log ratio) of -1.28

The recorded polymerase ribozyme fitness (log ratio) for entry A50G C99U equals -3.27

The variant A2U U32C C62A showed polymerase ribozyme fitness (log ratio) equal to -4.44
